biological target: IgE antibodies of the individual allergic patient serum II/17; assay: EAST inhibition, individual serum II/17
Please go through the items and note down their inhibition value (inhibitor concentration at 25% inhibition).
One number for each entry, in mol/L.

rPhl p 5b deletion mutant DM1 (deletion K50-P132, D49L) (protein) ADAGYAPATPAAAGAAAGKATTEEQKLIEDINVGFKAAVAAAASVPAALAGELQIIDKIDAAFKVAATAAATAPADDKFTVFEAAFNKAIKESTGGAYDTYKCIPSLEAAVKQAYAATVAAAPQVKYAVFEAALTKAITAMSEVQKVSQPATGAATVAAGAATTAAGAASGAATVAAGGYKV = 6.5e-09
rPhl p 5b point mutant PM1 (N32D, D49L, K50A) (protein) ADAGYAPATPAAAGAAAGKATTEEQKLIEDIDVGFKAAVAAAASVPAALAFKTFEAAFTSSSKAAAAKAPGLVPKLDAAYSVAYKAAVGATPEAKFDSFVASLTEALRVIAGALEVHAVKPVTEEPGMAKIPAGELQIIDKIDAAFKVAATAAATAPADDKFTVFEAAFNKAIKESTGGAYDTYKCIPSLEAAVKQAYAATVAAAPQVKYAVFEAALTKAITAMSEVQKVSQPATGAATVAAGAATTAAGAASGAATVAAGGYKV = 6.4e-10

Field: next binder
(Q) Any idea what its inhibition value (inhibitor concentration at 25% inhibition) is? The binder is recombinant Phl p 5b (wild type) (protein) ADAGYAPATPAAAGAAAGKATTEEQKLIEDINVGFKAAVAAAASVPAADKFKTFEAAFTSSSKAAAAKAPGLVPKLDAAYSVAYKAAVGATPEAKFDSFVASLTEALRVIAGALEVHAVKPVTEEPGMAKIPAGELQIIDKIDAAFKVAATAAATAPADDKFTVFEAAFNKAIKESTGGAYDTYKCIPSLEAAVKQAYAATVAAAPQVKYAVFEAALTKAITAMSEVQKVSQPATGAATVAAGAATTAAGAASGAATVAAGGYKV
(A) 2.1e-10
